The reader will find reported GI50 values listed item by item below.
Assay: Anticlonogenic activity in human HCT116 cells after 6 days by crystal violet staining based assay
Format: functional
Details: HCT-116, 144 h

Solved cases (4 shown):
1. COc1ccc([C@@H]2CC(=O)c3c(O)cc(OC(=O)c4ccccc4)cc3O2)cc1OC(=O)c1ccccc1 = 46 µM
2. COc1ccc([C@@H]2CC(=O)c3c(O)cc(OC(=O)c4ccccc4C)cc3O2)cc1O = 22.9 µM
3. COc1ccc([C@@H]2CC(=O)c3c(O)cc(OC(=O)Cc4ccccc4)cc3O2)cc1OC(=O)Cc1ccccc1 = 63.9 µM
4. COc1ccc([C@@H]2CC(=O)c3c(O)cc(OC(=O)c4ccccc4)cc3O2)cc1O = 16.5 µM

Pending compound:
What value of measured GI50 is listed for COc1ccc([C@@H]2CC(=O)c3c(O)cc(O)cc3O2)cc1O [HESPERETIN] ?
36.1 µM

----------
Assay: Anticlonogenic activity in human HCT116 cells after 6 days by crystal violet staining based assay
Format: functional
Conditions: HCT-116, 144 h
READOUT_TYPE: GI50 (µM)
Please respond with the number in µM and leave the unit unwritten.

Solved cases (3 shown):
1. CCCC(=O)Oc1cc(O)c2c(c1)O[C@H](c1ccc(OC)c(O)c1)CC2=O = 12
2. COc1ccc([C@@H]2CC(=O)c3c(O)cc(OC(=O)/C=C/c4ccccc4)cc3O2)cc1OC(=O)/C=C/c1ccccc1 = 21
3. COc1ccc([C@@H]2CC(=O)c3c(O)cc(OC(=O)c4ccccc4C)cc3O2)cc1OC(=O)c1ccccc1C = 48.7

What value of measured GI50 is listed for CCCC(=O)Oc1cc(O)c2c(c1)O[C@H](c1ccc(OC)c(OC(=O)CCC)c1)CC2=O ?
13.2

----------
The reader will find reported GI50 values listed item by item below.
Experiment: Anticlonogenic activity in human HCT116 cells after 6 days by crystal violet staining based assay
Assay type: functional
Settings: HCT-116, 144 h
Please respond with the number in µM and leave the unit unwritten.

What value of measured GI50 is listed for COc1ccc([C@@H]2CC(=O)c3c(O)cc(OC(=O)c4ccc(C)cc4)cc3O2)cc1OC(=O)c1ccc(C)cc1 ?
71.7

What value of measured GI50 is listed for COc1ccc(C(=O)Oc2cc(O)c3c(c2)O[C@H](c2ccc(OC)c(OC(=O)c4ccc(OC)cc4)c2)CC3=O)cc1 ?
35.7

What value of measured GI50 is listed for C/C=C/C(=O)Oc1cc(O)c2c(c1)O[C@H](c1ccc(OC)c(O)c1)CC2=O ?
16.9

What value of measured GI50 is listed for COc1ccc([C@@H]2CC(=O)c3c(O)cc(OC(=O)C(C)(C)C)cc3O2)cc1O ?
31.5
